- Tested on: DmEcR-CDEF
- experiment.description: VP16/DmEcR-CDEF wild-type and mutants, 6xEcRE β-gal reporter transactivation in insect L57 cells
- Assay type: cell-based, Drosophila melanogaster
- test.parameters: GS™-E, DmEcR mutants
measured.quantity: non-steroid activity (summary of Table 14)

molecule	assay.result
C217S: DmEcR-CDEF LBD substitution mutant, Cysteine (C) to Serine (S) (protein, Drosophila melanogaster) LTYNQLAVIYKLIWYQDGYEQPSEEDLRRIMSQPDENESQTDVSFRHITEITILTVQLIVEFAKGLPAFTKIPQEDQITLLKACSSEVMMLRMARRYDHSSDSIFFANNRSYTRDSYKMAGMADNIEDLLHFCRQMFSMKVDNVEYALLTAIVIFSDRPGLEKAQLVEAIQSYYIDTLRIYILNRHCGDSMSLVFYAKLLSILTELRTLGNQNAEMSFSLKLKNRKLPKFLEEIWDV	minimal effect
G121R: DmEcR-CDEF LBD substitution mutant, Glycine (G) to Arginine (R) (protein, Drosophila melanogaster) LTYNQLAVIYKLIWYQDGYEQPSEEDLRRIMSQPDENESQTDVSFRHITEITILTVQLIVEFAKGLPAFTKIPQEDQITLLKACSSEVMMLRMARRYDHSSDSIFFANNRSYTRDSYKMARMADNIEDLLHFCRQMFSMKVDNVEYALLTAIVIFSDRPGLEKAQLVEAIQSYYIDTLRIYILNRHCGDSMSLVFYAKLLSILTELRTLGNQNAEMCFSLKLKNRKLPKFLEEIWDV	minimal effect

Cited source for all entries: patent US8715959B2
